# TARGET_DESC: UniProt:Q01726
# ASSAY_PROTOCOL: cAMP assay (LANCE) in T-Rex-293 cells expressing MC1R
# MEASUREMENT_PARAMETERS: cAMP assay; mean (± SEM) of at least three independent experiments; read-out: EC50 hMC1R cAMP
Where a SMILES comes first, the peptide text is derived from it.
RECORDED_ENDPOINT: EC50 (µM)
Numbers only, in µM.

INSERT INTO measurements (compound, recorded_endpoint, experimental_result) VALUES
  ('CN1C(=O)[C@@H]2N[C@H](c3ccc(cc3)C(=O)NCCCC[C@@H](C(=O)N[C@@H](Cc3ccc(O)cc3)C(N)=O)NC(=O)[C@H](CC(N)=O)NC(=O)[C@@H](Cc3ccccc3)NC(=O)[C@@H](Cc3ccccc3)NC(=O)[C@H](CCCNC(=N)N)NC(=O)[C@@H]1Cc1ccccc1)[C@@H]1C(=O)N(c3ccccc3)C(=O)[C@@H]12 [K1-major, [II-FRffNK ]Y]', 'EC50', 4.1),
  ('C[C@@H]1NC(=O)[C@H](CC(N)=O)NC(=O)[C@H](Cc2ccccc2)NC(=O)[C@H](Cc2ccccc2)NC(=O)[C@H](CCCNC(=N)N)NC(=O)[C@H](Cc2ccccc2)N(C)C(=O)[C@H]2N[C@@H](c3ccc(cc3)C(=O)NCCCC[C@@H](C(=O)N[C@@H](Cc3ccc(O)cc3)C(N)=O)NC1=O)[C@H]1C(=O)N(C)C(=O)[C@H]12 [F1-major*, [ I-FRFFNAK ]Y]', 'EC50', 14),
  ('C[C@@H]1NC(=O)[C@H](CC(N)=O)NC(=O)[C@H](Cc2ccccc2)NC(=O)[C@H](Cc2ccccc2)NC(=O)[C@H](CCCNC(=N)N)NC(=O)[C@H](Cc2ccccc2)N(C)C(=O)[C@H]2N[C@@H](c3ccc(cc3)C(=O)NCCCC[C@@H](C(=O)N[C@@H](Cc3ccc(O)cc3)C(N)=O)NC1=O)[C@H]1C(=O)N(c3ccccc3)C(=O)[C@H]12 [F2-minor, [ II-FRFFNAK ]Y]', 'EC50', 9.3),
  ('C[C@@H]1NC(=O)[C@H](CC(N)=O)NC(=O)[C@H](Cc2ccccc2)NC(=O)[C@H](Cc2ccccc2)NC(=O)[C@H](CCCNC(=N)N)NC(=O)[C@@H](NC(=O)[C@@H](N)Cc2ccc(O)cc2)CSSC[C@@H](C(=O)N[C@@H](Cc2ccc(O)cc2)C(N)=O)NC(=O)[C@H](Cc2ccccc2)NC1=O [compound 28, reference compound] (HELM PEPTIDE1{Y.C.R.F.F.N.A.F.C.Y.[am]}$PEPTIDE1,PEPTIDE1,2:R3-9:R3$$$V2.0)', 'EC50', 1.2);

Now for another entry.
## Task What value of EC50 has been recorded for this entry: CN1C(=O)[C@H]2N[C@@H](c3ccc(cc3)C(=O)NCCCC[C@@H](C(N)=O)NC(=O)[C@H](Cc3ccccc3)NC(=O)[C@H](Cc3ccccc3)NC(=O)[C@H](CCCNC(=N)N)NC(=O)[C@@H]1Cc1ccccc1)[C@H]1C(=O)N(c3ccccc3)C(=O)[C@H]12 [N3-major*, [II-FRFFK ]]
## Result 22

====

Consider the following substances; for each one, report its ring closure, yield after HPLC.
# MEASUREMENT_PARAMETERS: other bond; Fmoc removal; intramolecular imine; N-methylmaleimide 1,3-dipolar cycloaddition; resin; 4 steps
One number for each entry, in %.

In the examples that follow, each entry is paired with its recorded ring closure, yield after HPLC.
INSERT INTO measurements (substance, recorded_endpoint, units_label, experimental_result) VALUES
  ('[N-Me-fused-di-pyrrolidine-NMeFINNNK]G', 'ring closure, yield after HPLC', '%', 3),
  ('[N-Me-fused-di-pyrrolidine-NMeFEEKDINNNVKK]T', 'ring closure, yield after HPLC', '%', 2),
  ('[N-Me-fused-di-pyrrolidine-NMeFDINNNVK]G', 'ring closure, yield after HPLC', '%', 5),
  ('[N-Me-fused-di-pyrrolidine-NMefDINNNK]G', 'ring closure, yield after HPLC', '%', 5);

## Task GET /values?readout=ring closure, yield after HPLC&item= [N-Me-fused-di-pyrrolidine-FDINNNK]G
## Result 2

====

# TARGET_DESC: human MC4R (Homo sapiens, UniProt P32245)
# Sequence (P32245 whole entry): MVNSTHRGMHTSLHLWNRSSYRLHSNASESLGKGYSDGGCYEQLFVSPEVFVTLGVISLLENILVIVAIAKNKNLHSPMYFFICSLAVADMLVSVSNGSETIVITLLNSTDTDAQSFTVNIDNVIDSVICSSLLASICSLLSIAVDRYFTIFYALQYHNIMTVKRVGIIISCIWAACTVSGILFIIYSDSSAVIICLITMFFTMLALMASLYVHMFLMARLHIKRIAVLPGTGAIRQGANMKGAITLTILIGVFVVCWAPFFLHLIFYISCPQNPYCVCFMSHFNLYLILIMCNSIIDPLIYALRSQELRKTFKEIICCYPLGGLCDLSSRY
# ASSAY_PROTOCOL: cAMP assay (LANCE) in T-Rex-293 cells expressing MC4R
# MEASUREMENT_PARAMETERS: cAMP assay; mean (± SEM) of at least three independent experiments; read-out: EC50 hMC4R cAMP
pEC50: −log10 of the molar value.
Kindly state pEC50 for each of the entries shown.

INSERT INTO measurements (molecule, target_desc, experimental_result) VALUES
  ('CN1C(=O)[C@@H]2[C@H](C1=O)[C@H]1N[C@@H]2C(=O)N(C)[C@@H](Cc2ccccc2)C(=O)N[C@@H](CCCNC(=N)N)C(=O)N[C@H](Cc2ccccc2)C(=O)N[C@H](Cc2ccccc2)C(=O)N[C@@H](CC(N)=O)C(=O)N[C@H](C(=O)NCC(N)=O)CCCCNC(=O)c2ccc1cc2 [K2-minor, [I-FRffNK ]G]', 'human MC4R (Homo sapiens, UniProt P32245)', '< 5.00'),
  ('C[C@@H]1NC(=O)[C@H](CC(N)=O)NC(=O)[C@@H](Cc2ccccc2)NC(=O)[C@@H](Cc2ccccc2)NC(=O)[C@H](CCCNC(=N)N)NC(=O)[C@H](Cc2ccccc2)N(C)C(=O)[C@@H]2N[C@H](c3ccc(cc3)C(=O)NCCCC[C@@H](C(=O)N[C@@H](Cc3ccc(O)cc3)C(N)=O)NC(=O)[C@H](Cc3ccccc3)NC1=O)[C@@H]1C(=O)N(C)C(=O)[C@@H]12 [C1-major, [I-FRffNAFK ]Y]', 'human MC4R (Homo sapiens, UniProt P32245)', '< 4.00'),
  ('C[C@@H]1NC(=O)[C@H](CC(N)=O)NC(=O)[C@H](Cc2ccccc2)NC(=O)[C@H](Cc2ccccc2)NC(=O)[C@H](CCCNC(=N)N)NC(=O)[C@H](Cc2ccccc2)N(C)C(=O)[C@H]2N[C@@H](c3ccc(cc3)C(=O)NCCCC[C@@H](C(=O)N[C@@H](Cc3ccc(O)cc3)C(N)=O)NC1=O)[C@H]1C(=O)N(C)C(=O)[C@H]12 [F1-major*, [ I-FRFFNAK ]Y]', 'human MC4R (Homo sapiens, UniProt P32245)', '< 4.00'),
  ('C[C@@H]1NC(=O)[C@H](CC(N)=O)NC(=O)[C@H](Cc2ccccc2)NC(=O)[C@H](Cc2ccccc2)NC(=O)[C@H](CCCNC(=N)N)NC(=O)[C@H](Cc2ccccc2)N(C)C(=O)[C@@H]2N[C@H](c3ccc(cc3)C(=O)NCCCC[C@@H](C(=O)N[C@@H](Cc3ccc(O)cc3)C(N)=O)NC(=O)[C@H](Cc3ccccc3)NC1=O)[C@@H]1C(=O)N(C)C(=O)[C@@H]12 [B1-major, [ I-FRFFNAFK ]Y]', 'human MC4R (Homo sapiens, UniProt P32245)', '< 4.00');

Batch lookup, pEC50 per entry.
1. CN1C(=O)[C@H]2N[C@@H](c3ccc(cc3)C(=O)NCCCC[C@@H](C(=O)NCC(N)=O)NC(=O)[C@H](CC(N)=O)NC(=O)[C@H](Cc3ccccc3)NC(=O)[C@H](Cc3ccccc3)NC(=O)[C@H](CCCNC(=N)N)NC(=O)[C@@H]1Cc1ccccc1)[C@H]1C(=O)N(c3ccccc3)C(=O)[C@H]12 [J3-major*, [ II-FRFFNK ]G]
2. CN1C(=O)[C@H]2N[C@@H](c3ccc(cc3)C(=O)NCCCC[C@@H](C(=O)N[C@@H](Cc3ccc(O)cc3)C(N)=O)NC(=O)[C@H](Cc3ccccc3)NC(=O)[C@H](Cc3ccccc3)NC(=O)[C@H](CCCNC(=N)N)NC(=O)[C@@H]1Cc1ccccc1)[C@H]1C(=O)N(c3ccccc3)C(=O)[C@H]12 [N1-major*, [II-FRFFK ]Y]

## Result
["< 4.00", "< 5.00"]

====

# TARGET_DESC: human MC1R (Homo sapiens)
# Sequence (Q01726 whole entry): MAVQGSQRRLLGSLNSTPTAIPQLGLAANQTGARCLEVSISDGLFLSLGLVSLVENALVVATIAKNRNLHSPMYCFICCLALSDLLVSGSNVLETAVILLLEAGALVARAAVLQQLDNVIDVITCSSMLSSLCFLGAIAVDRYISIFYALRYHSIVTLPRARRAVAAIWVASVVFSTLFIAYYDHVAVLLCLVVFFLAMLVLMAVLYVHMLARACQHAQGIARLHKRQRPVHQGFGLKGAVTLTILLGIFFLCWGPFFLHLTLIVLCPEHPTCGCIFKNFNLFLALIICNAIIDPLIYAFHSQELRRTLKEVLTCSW
# ASSAY_PROTOCOL: cAMP assay (LANCE) in T-Rex-293 cells expressing MC1R
# MEASUREMENT_PARAMETERS: cAMP assay; mean (± SEM) of at least three independent experiments; read-out: EC50 hMC1R cAMP
For each record, write down the corresponding EC50.
Numbers only, in µM.

INSERT INTO assay_data (compound, units_label, experimental_result) VALUES
  ('COc1ccc(N2C(=O)[C@@H]3[C@H](C2=O)[C@H]2N[C@@H]3c3ccc(cc3)C(=O)NCCCC[C@@H](C(=O)NCC(N)=O)NC(=O)[C@H](CC(N)=O)NC(=O)[C@@H](Cc3ccccc3)NC(=O)[C@@H](Cc3ccccc3)NC(=O)[C@H](CCCNC(=N)N)NC(=O)[C@H](Cc3ccccc3)N(C)C2=O)cc1 [K4-major, [III-FRffNK ]G]', 'µM', 3.9);

Now turn to the next compound.
## Task I would be grateful if you could share the reported EC50 for C[C@@H]1NC(=O)[C@H](CC(N)=O)NC(=O)[C@@H](Cc2ccccc2)NC(=O)[C@@H](Cc2ccccc2)NC(=O)[C@H](CCCNC(=N)N)NC(=O)[C@H](Cc2ccccc2)N(C)C(=O)[C@@H]2N[C@H](c3ccc(cc3)C(=O)NCCCC[C@@H](C(=O)NCC(N)=O)NC(=O)[C@H](Cc3ccccc3)NC1=O)[C@@H]1C(=O)N(C)C(=O)[C@@H]12 [C4-major, [I-FRffNAFK ]G] .
## Result 2.2

Hey, just so you know, these numbers are from paper PMC7307906.
